test system: ACHN; assay: NCI tumour cell line growth inhibition, 48 h
Activity calls are given as the source filed them. No stated cut-off is given here; in the data, active = GI50 up to about 1.1 µM and inactive = higher.
outcome-measure: GI50

molecule | value-reported
C[P+]1(c2ccccc2)CCCCC1 | > 100 µM (inactive)

For each of the items listed, what is its GI50?
1. CCOC(=O)C1(Cc2ccc3c(c2)CCC3)Cc2cc3c(cc2C1)CCC3
2. N=C(N)N/N=C(/CCN1CCCC1)CC(c1ccccc1)c1c(O)c2ccccc2oc1=O (stereo not drawn)

Output:
33.7 µM (inactive)
> 100 µM (inactive)

For each of the items listed, what is its GI50?
1. Cc1c(Cl)cccc1NC(=O)CC1C(=O)Nc2ccccc2S1(=O)=O (stereo not drawn)
2. CC(=O)OCCOCNC(=S)N/N=C/c1ccc2ccccc2n1
3. COC(=O)C12CC(c3ccccc31)C1C(=O)OC(=O)C12 (stereo not drawn)
4. N=c1c2c3n(c4c(=O)n(-c5ccccc5)c(=S)n(c(=O)n1-c1ccccc1)c24)CCCCC3
5. CCOC(=O)C(N=C(c1ccccc1)c1ccccc1)N(C(=O)OC(C)(C)C)C(=O)OC(C)(C)C (stereo not drawn)
6. COc1ccc2c(O)c1-c1c(OC)ccc(c1O)SSc1ccc(OC)c(c1O)-c1c(OC)ccc(c1O)SS2
7. O=C(N/N=C\c1ccc([N+](=O)[O-])s1)c1ccncc1

Output:
["16.5 µM (inactive)", "23 µM (inactive)", "> 100 µM (inactive)", "> 100 µM (inactive)", "> 100 µM (inactive)", "5.32 µM (inactive)", "18.3 µM (inactive)"]

* * *

test system: MOLT-4; assay: NCI tumour cell line growth inhibition, 48 h
Activity calls are given as the source filed them. Rule as the data show it: active = GI50 up to about 1.1 µM and inactive = higher.
For each of the compounds below, state its GI50.

Some solved entries appear below for comparison.
compound | GI50
Cc1cc(OCc2nn(CN3CCN(C)CC3)c(=S)n2/N=C/c2ccc(-c3ccc(Cl)cc3Cl)o2)ccc1Cl | 67.8 µM (inactive)
O=C(CNc1cccc(Cl)c1)Nn1c(-c2ccccc2)nc2ccccc2c1=O | 1.35 µM (inactive)
COC(c1cccc(C(O)(C(F)(F)F)C(F)(F)F)c1)(C(F)(F)F)C(F)(F)F | 22 µM (inactive)
CCN(CC)CCC(=O)NC1c2ccc(Cl)cc2Oc2c(C)cccc21 (stereo unspecified) | 18.6 µM (inactive)
CC(C)C[S+]1C2=C(CC(C)(C)CC2=O)[N-]c2ccccc21 (stereo unspecified) | 67.8 µM (inactive)

For each of the items listed, what is its GI50?
1. Cc1ccc(S(=O)OC2c3ccccc3Cc3ccccc32)cc1 (stereo unspecified)
2. Cl[Si]1(Cl)Oc2ccccc2O[Si](Cl)(Cl)Oc2ccccc2O1
3. Cc1ccc(S(=O)(=O)N(CCNC(=O)c2cccc(O)c2O)c2cc3c4c(c2)Oc2cccc5c2C4(C)c2c(cccc2O3)O5)cc1
4. CCOC(=O)COc1cc(-c2ccccc2F)nc2cc3c(cc12)OCO3
5. CCNC(=O)O/N=C1/C=C2CC[C@@H]3C(CC[C@@]4(C)C3CC[C@@H]4OC(=O)NCC)[C@@]2(C)CC1 (stereo partly specified)
6. O=C1OC[C@H]2[C@@H]1[C@H]1O[C@@H]2C2=C(CCC2)C1=O

Output:
["19.2 µM (inactive)", "3.25 µM (inactive)", "> 100 µM (inactive)", "27.8 µM (inactive)", "2.36 µM (inactive)", "1.11 µM (active)"]

* * *

system: OVCAR-3; test: NCI tumour cell line growth inhibition, 48 h
Active and inactive are the calls of the source. No stated cut-off is given here; in the data, active = GI50 up to about 1.1 µM and inactive = higher.
outcome-measure: GI50

compound | GI50
CN(C)CC1CCCC/C1=N/OC(=O)c1ccc(Cl)cc1 (configuration not stated) | > 100 µM (inactive)
CCCCCCCCCCOC1C(C(C)OCCCN(C)C)OC2OC3(CCCCC3)OC21 (configuration not stated) | 14.7 µM (inactive)
CSc1nc(SC)c2c(C)cn(COCCOC(=O)c3ccccc3)c2n1 | > 100 µM (inactive)
COc1cccc(NC(=O)CC(=O)n2nc(C)c(/N=N/c3ccccc3)c2C)c1 | > 100 µM (inactive)
CC(=O)N(C(C)=O)n1c(Cc2ccc(C)cc2)nn(C(C)=O)c1=O | > 100 µM (inactive)

For each of the items listed, what is its GI50?
1. CC(C)C[S+]1C2=C(CC(C)(C)CC2=O)[N-]c2ccccc21 (configuration not stated)
2. O=C(CN1c2ccccc2Sc2ccccc21)n1cnc2ccccc21

Output:
["> 100 µM (inactive)", "62.8 µM (inactive)"]

* * *

test system: EKVX; test: NCI tumour cell line growth inhibition, 48 h
Active and inactive are the calls of the source. Rule as the data show it: active = GI50 up to about 1.1 µM and inactive = higher.
Select the correct class. Options are Yes = active, No = inactive and nothing else.

Worked examples follow.
compound | class-name
C/C(=N\c1cc(Cl)cc(Cl)c1)c1ccncc1 | No
Cc1cc(NS(=O)(=O)c2ccc(NC(=O)c3cccc4cc5ccccc5nc34)cc2)no1 | No
Fc1ccc(Nc2nc(Cl)c3nc[nH]c3n2)cc1Cl | No
CCCCC#C[I+]c1ccccc1 | No
OCCCNCc1ccncc1 | No
C#CCCCCC#CC1CCCC1C1=CC(=O)c2ccccc21 (stereo not given) | No
CC(O)/C=C/C(CCC(C)CO)C(C)C (stereo not given) | No
CCC1OC2(C)CC(C#N)(C#N)C1(C#N)C(=N)O2 (stereo not given) | No

Task: For Oc1ccc(/C=N/N=c2\[nH][nH]/c(=N\N=C\c3ccc(O)cc3O)c3ccccc23)c(O)c1 , what call appears in the results of this test?
Output: Yes

Task: For CCOC(=O)C1(Br)C(c2ccccc2)NC(=O)NC1(C)Br (stereo not given) , what call appears in the results of this test?
Output: No

* * *

tested on: NCI-H23; assay: NCI tumour cell line growth inhibition, 48 h
Calls of active or inactive are those of the source. Cut-off read from the data, not from the text of the source: active = GI50 up to about 1.1 µM and inactive = higher.
Select the correct class. Options are class 1 = active, class 0 = inactive and nothing else.

Worked examples follow.
compound | class-name
CCOP(=O)(OCC)/C(C#N)=C/c1cccn1C | class 0
N#CC(C(=O)C(=O)Nc1ccc(Cl)c(Cl)c1)c1ccc(Cl)cc1 (stereo not given) | class 0
c1ccc2c(c1)-c1ccccc1C2N1CC2CCC(CC2)C1 | class 0

Task: For Oc1ccc(/C=N/N=c2\[nH][nH]/c(=N\N=C\c3ccc(O)cc3O)c3ccccc23)c(O)c1 , what call appears in the results of this test?
Output: class 1

Task: For COc1cc(OC)c2c(c1)C(=O)C(CC1(C)OCCCO1)=CC2=O , what call appears in the results of this test?
Output: class 0

Task: For COC(=O)[C@]1(c2cc3ccccc3[nH]2)CC2CN(CC(=O)N(C)OC)C1C1OC(C)(C)OC21 (stereo not given in full) , what call appears in the results of this test?
Output: class 0

Task: For CCCC(C)c1c(Cl)nc(Cl)nc1Cl (stereo not given) , what call appears in the results of this test?
Output: class 0

Task: For C/C1=C/C(=O)O[C@@H]2C[C@@H](CC[C@H](C)/C=C\C=C\CC1)O[C@@](O)([C@@H]1CSC(=O)N1)C2 , what call appears in the results of this test?
Output: class 0

Task: For COC(=O)NN1C(C)=C(C(=O)OC)C2(C#N)C(C(=O)OC)=C(C)N(NC(=O)OC)C12N (stereo not given) , what call appears in the results of this test?
Output: class 0

Task: For COc1ccc(OC)c(NCC#N)c1 , what call appears in the results of this test?
Output: class 0

Task: For CCOC(=O)C1(Br)C(c2ccccc2)NC(=O)NC1(C)Br (stereo not given) , what call appears in the results of this test?
Output: class 0

Task: For C=C(C(=C)P(=S)(c1ccccc1)c1ccccc1)P(=S)(c1ccccc1)c1ccccc1 , what call appears in the results of this test?
Output: class 0

* * *

For each of the compounds below, state its GI50.
tested on: XF498; experiment: NCI tumour cell line growth inhibition, 48 h
The source made the active and inactive calls. Cut-off read from the data, not from the text of the source: active = GI50 up to about 1.1 µM and inactive = higher.

Some solved entries appear below for comparison.
compound | system-under-test | GI50
Cc1c(-c2ccc(-c3ccccc3F)cc2)nc2ccc(F)cc2c1C(=O)O [BREQUINAR SODIUM] | XF498 | 18.1 µM (inactive)
Cn1c(=O)c2nc(-c3ccc(Cl)cc3)oc2n(C)c1=O | XF498 | > 100 µM (inactive)

For each of the items listed, what is its GI50?
1. OCC1OC(c2nc(C3=NCCCN3)cs2)C(O)C1O (stereo unspecified)
2. N=C(N)N/N=C(/CCN1CCCC1)CC(c1ccccc1)c1c(O)c2ccccc2oc1=O (stereo unspecified)
3. CCOC(=O)C1(Br)C(c2ccccc2)NC(=O)NC1(C)Br (stereo unspecified)

Output:
> 100 µM (inactive)
> 100 µM (inactive)
52.2 µM (inactive)

* * *

tested on: ACHN; test: NCI tumour cell line growth inhibition, 48 h
The source made the active and inactive calls. Rule as the data show it: active = GI50 up to about 1.1 µM and inactive = higher.
outcome-measure: GI50

Some solved entries appear below for comparison.
molecule | GI50
O=P(O)(O)CN1CCNCCN(CP(=O)(O)O)CCN(CP(=O)(O)O)CCNCC1 | > 100 µM (inactive)
CCOC(=O)COc1cc(-c2ccccc2F)nc2cc3c(cc12)OCO3 | > 100 µM (inactive)

Alright, here's another molecule for you.
Measured on ACHN, CCOC(=O)C1(Br)C(c2ccccc2)NC(=O)NC1(C)Br (stereo not drawn) has a documented GI50 of > 100 µM (inactive)
